ASSAYED_TARGET: T1, Clostridium difficile toxin A (TcdA) (Clostridium difficile, UniProt P16154 1-2710)
T1 construct: mature; also called full-length TcdA
T1 sequence (P16154 whole entry): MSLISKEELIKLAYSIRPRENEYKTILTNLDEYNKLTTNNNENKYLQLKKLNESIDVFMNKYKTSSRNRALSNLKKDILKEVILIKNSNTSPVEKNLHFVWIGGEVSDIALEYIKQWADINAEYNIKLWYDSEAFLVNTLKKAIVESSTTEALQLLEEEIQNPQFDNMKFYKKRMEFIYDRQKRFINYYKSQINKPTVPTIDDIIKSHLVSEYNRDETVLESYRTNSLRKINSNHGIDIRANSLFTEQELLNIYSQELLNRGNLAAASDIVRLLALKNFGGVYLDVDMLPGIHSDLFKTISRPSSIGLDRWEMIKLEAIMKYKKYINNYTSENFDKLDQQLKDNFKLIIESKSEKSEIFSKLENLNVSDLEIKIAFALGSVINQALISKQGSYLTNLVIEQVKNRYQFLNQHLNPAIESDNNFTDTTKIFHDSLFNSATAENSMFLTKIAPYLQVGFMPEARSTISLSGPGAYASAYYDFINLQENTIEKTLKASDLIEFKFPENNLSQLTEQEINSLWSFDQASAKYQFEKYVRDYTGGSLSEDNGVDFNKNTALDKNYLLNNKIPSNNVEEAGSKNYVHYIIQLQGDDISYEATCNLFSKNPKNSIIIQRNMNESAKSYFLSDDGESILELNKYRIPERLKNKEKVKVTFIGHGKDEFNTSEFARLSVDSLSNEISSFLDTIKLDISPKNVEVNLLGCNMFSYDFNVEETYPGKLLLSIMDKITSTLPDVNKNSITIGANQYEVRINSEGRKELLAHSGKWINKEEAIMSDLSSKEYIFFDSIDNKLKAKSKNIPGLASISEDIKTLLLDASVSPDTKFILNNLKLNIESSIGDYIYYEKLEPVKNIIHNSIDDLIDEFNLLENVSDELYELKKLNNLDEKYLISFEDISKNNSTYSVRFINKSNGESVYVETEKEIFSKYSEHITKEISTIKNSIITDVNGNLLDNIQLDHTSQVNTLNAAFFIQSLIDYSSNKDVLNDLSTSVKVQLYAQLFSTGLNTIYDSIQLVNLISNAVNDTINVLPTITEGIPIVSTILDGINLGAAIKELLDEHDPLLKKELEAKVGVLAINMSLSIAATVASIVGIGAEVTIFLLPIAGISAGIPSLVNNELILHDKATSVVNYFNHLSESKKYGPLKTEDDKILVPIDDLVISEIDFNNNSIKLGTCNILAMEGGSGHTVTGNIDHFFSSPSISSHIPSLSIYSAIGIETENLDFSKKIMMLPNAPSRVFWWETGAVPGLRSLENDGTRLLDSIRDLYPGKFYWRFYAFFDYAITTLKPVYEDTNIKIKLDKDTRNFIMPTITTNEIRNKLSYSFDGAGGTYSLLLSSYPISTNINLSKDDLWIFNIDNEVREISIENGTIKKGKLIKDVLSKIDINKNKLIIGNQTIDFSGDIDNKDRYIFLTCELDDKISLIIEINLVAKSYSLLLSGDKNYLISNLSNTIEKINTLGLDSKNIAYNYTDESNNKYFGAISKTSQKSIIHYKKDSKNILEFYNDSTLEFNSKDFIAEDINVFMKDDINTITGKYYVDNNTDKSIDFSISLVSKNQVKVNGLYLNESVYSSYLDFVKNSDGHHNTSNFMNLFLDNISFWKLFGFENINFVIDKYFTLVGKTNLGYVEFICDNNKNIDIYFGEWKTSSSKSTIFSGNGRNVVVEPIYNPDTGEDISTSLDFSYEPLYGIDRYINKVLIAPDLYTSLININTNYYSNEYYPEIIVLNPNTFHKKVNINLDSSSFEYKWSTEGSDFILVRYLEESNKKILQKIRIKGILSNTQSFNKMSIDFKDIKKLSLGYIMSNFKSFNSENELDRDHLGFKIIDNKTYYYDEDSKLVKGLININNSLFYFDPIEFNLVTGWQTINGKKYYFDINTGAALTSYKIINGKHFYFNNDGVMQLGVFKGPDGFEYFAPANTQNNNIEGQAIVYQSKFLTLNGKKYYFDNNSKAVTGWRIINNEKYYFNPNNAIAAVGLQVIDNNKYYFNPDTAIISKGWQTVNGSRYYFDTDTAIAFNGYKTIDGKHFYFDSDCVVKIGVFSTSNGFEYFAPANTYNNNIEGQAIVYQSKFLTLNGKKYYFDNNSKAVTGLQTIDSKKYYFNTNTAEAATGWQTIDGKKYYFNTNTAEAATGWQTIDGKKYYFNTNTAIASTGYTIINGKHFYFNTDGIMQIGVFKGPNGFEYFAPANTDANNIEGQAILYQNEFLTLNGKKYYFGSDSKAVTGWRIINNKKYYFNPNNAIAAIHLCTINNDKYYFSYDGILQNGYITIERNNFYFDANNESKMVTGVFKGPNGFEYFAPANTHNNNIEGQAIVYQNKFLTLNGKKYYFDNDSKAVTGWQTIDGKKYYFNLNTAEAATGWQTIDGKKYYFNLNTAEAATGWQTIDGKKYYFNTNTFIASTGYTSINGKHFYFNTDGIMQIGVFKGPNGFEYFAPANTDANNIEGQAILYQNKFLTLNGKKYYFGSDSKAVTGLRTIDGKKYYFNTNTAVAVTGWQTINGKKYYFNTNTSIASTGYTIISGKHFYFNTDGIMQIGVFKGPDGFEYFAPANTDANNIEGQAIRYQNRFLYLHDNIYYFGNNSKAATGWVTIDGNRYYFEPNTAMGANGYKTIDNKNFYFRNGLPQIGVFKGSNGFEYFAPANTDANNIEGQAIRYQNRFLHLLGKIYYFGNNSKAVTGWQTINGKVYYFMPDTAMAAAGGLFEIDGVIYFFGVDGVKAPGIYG
PROTOCOL_TEXT: SPR (Biacore 3000), VHH over immobilized TcdA, 1:1 fit
So basically: is Kd under 10 nM? Then condition met. Not under? Then condition not met.

{"BINDER": "A26.8 VHH mutant T54Y (VHH, not shown: small tags and cut ends) VHH: QVKLEESGGGLVQAGGSLRLSCAASERTFSRYPVAWFRQAPGAEREFVAVISSYGTSTYYADSVKGRFTISRDNAKVTVYLQMNNLKREDTAVYFCAVNSQRTRLQDPNEYDYWGQGTQVTVSS", "ANSWER_LABEL": "condition not met"}

Exercise: Quick check: does A26.8-Q101K,T103M (VHH, not shown: small tags and cut ends) VHH: QVKLEESGGGLVQAGGSLRLSCAASERTFSRYPVAWFRQAPGAEREFVAVISSTGTSTYYADSVKGRFTISRDNAKVTVYLQMNNLKREDTAVYFCAVNSKRMRLQDPNEYDYWGQGTQVTVSS have Kd under 10 nM?
Key: condition met

Exercise: Quick one: A26.8-T56R, T103M (VHH, not shown: small tags and cut ends) VHH: QVKLEESGGGLVQAGGSLRLSCAASERTFSRYPVAWFRQAPGAEREFVAVISSTGRSTYYADSVKGRFTISRDNAKVTVYLQMNNLKREDTAVYFCAVNSQRMRLQDPNEYDYWGQGTQVTVSS
Key: condition met

Exercise: Do the same for A26.8 VHH mutant D107N (VHH, not shown: small tags and cut ends) VHH: QVKLEESGGGLVQAGGSLRLSCAASERTFSRYPVAWFRQAPGAEREFVAVISSTGTSTYYADSVKGRFTISRDNAKVTVYLQMNNLKREDTAVYFCAVNSQRTRLQNPNEYDYWGQGTQVTVSS please
Key: condition not met

Exercise: Now the same for A26.8 VHH mutant E110Q (VHH, not shown: small tags and cut ends) VHH: QVKLEESGGGLVQAGGSLRLSCAASERTFSRYPVAWFRQAPGAEREFVAVISSTGTSTYYADSVKGRFTISRDNAKVTVYLQMNNLKREDTAVYFCAVNSQRTRLQDPNQYDYWGQGTQVTVSS
Key: condition not met

Exercise: And what about the binder A26.8 VHH mutant T54W (VHH, not shown: small tags and cut ends) VHH: QVKLEESGGGLVQAGGSLRLSCAASERTFSRYPVAWFRQAPGAEREFVAVISSWGTSTYYADSVKGRFTISRDNAKVTVYLQMNNLKREDTAVYFCAVNSQRTRLQDPNEYDYWGQGTQVTVSS ?
Key: condition not met

Exercise: Now the binder A26.8-T103R (VHH, not shown: small tags and cut ends) VHH: QVKLEESGGGLVQAGGSLRLSCAASERTFSRYPVAWFRQAPGAEREFVAVISSTGTSTYYADSVKGRFTISRDNAKVTVYLQMNNLKREDTAVYFCAVNSQRRRLQDPNEYDYWGQGTQVTVSS
Key: condition met

Exercise: Would you mind doing A26.8-N109R (VHH, not shown: small tags and cut ends) VHH: QVKLEESGGGLVQAGGSLRLSCAASERTFSRYPVAWFRQAPGAEREFVAVISSTGTSTYYADSVKGRFTISRDNAKVTVYLQMNNLKREDTAVYFCAVNSQRTRLQDPREYDYWGQGTQVTVSS as well?
Key: condition not met

Measured values drawn from patent US20210171613A1 for this set.
